Assay: Primary qHTS for inhibitors of nuclear receptor binding SET domain protein 2 (NSD2) in an isogenic RCH-ACV NSD2 p.E1099K mutant (9B) (AID 1645876); note: nearly all actives have a fitted effect of over 70% in size
Conditions: RCH-ACV (leukaemia line) NSD2 E1099K (9B) viability, CellTiter-Glo, 72 h; series mostly up to 44.9 µM
Records with an inconclusive call do not appear. Active and inactive are the calls of the source. Calls come from the whole dose curve; as a rule, active = well fitted inhibition curve with a large enough effect; inconclusive = small, poorly fitted or top-dose-only effect; inactive = flat fitted curve, though single readings scatter.
Outcomes: active, inactive

INSERT INTO results (compound, category) VALUES
  ('CC(=O)NCC(=O)N1[C@@H]2CC[C@H]1c1ccc(Nc3ncc(C(F)(F)F)c(NC4CCC4)n3)cc12', 'active'),
  ('C=C1C[C@@H]2CC[C@@]34C[C@H]5O[C@H]6[C@@H](O3)[C@H]3O[C@H](CC[C@@H]3O[C@H]6[C@H]5O4)CC(=O)C[C@@H]3[C@@H](OC)[C@@H](C[C@H](O)CN)O[C@H]3C[C@H]3O[C@@H](CC[C@@H]1O2)C[C@@H](C)C3=C', 'active'),
  ('OC1CCC([C@H](O)C[C@H]2c3c(F)cccc3-c3cncn32)CC1 (some centres not stated)', 'inactive'),
  ('O=C(/C=C\n1cnc(-c2cc(C(F)(F)F)cc(C(F)(F)F)c2)n1)NNc1cnccn1', 'active'),
  ('CC#CC(=O)N1CC[C@@H](n2c(=O)n(-c3ccc(Oc4ccccc4)cc3)c3c(N)ncnc32)C1', 'active'),
  ('CCS(=O)(=O)N1CCC(C(C)n2c(C)c(C(=O)NCc3c(OC)cc(C)[nH]c3=O)c3ccccc32)CC1 (configuration not stated)', 'inactive'),
  ('C/C(=N\NC(=S)N1CCC1)c1ccccn1', 'active'),
  ('CC#Cc1cncc(-c2ccc3c(c2)[C@@]2(N=C(C)C(N)=N2)C2(CCC(OC)CC2)C3)c1 (some centres not stated)', 'inactive'),
  ('Cc1ccc(NS(=O)(=O)c2ccc3c(c2)C2C=CCC2C(c2ccc(C(=O)O)cc2)N3)cc1C (configuration not stated)', 'inactive'),
  ('C[C@@H]1CC(=O)Nc2cccc(-c3ccc4c(c3)c(-c3cnn(C)c3)nn4C)c2N1', 'active'),
  ('CCc1cc2c(c(OCC(F)(F)F)c(C(=O)NC3CCN(C(=O)CO)CC3)n2C)c(=O)n1CC(=O)c1ccccc1', 'inactive'),
  ('N#Cc1ccnc(N2C(=O)CC[C@H]2C(=O)N(c2cncc(F)c2)C(C(=O)NC2CC(F)(F)C2)c2ccccc2Cl)c1 (some centres not stated)', 'inactive'),
  ('CNCCn1c(=O)c2cc(OC)c(OC)cc2c2cnc3cc4c(cc3c21)OCO4', 'active'),
  ('O=C1CC(c2c[nH]c3ccc(F)cc23)C(=O)N1 (configuration not stated)', 'inactive'),
  ('CS(=O)(=O)c1ccc(-c2cnc(NCc3ccco3)n3cnnc23)cc1', 'inactive'),
  ('C[C@H]1CNCCCN1S(=O)(=O)c1cccc2cncc(F)c12', 'inactive'),
  ('Nc1nc2c(c(=O)[nH]1)N1CN(c3ccc(C(=O)N[C@@H](CCC(=O)O)C(=O)O)cc3)CC1CN2 (some centres not stated)', 'active');

---

Tested on: FAB9
Experiment: qHTS profiling for inhibitors of Plasmodium falciparum proliferation (AID 504749); note: nearly all actives have a fitted effect of over 60% in size; note: potency is the fitted concentration of half-maximal effect
Settings: P. falciparum in erythrocytes, SYBR Green DNA, 72 h; series mostly up to 28.7 µM
Records with an inconclusive call do not appear. Calls of active or inactive are those of the source. Calls follow the shape of the dose curve; as a rule, active = well fitted inhibition curve with a large enough effect; inconclusive = small, poorly fitted or top-dose-only effect; inactive = flat fitted curve, though single readings scatter.
Measurement kind: Potency

INSERT INTO measurements (compound, measurement_kind, experimental_value) VALUES
  ('C=C1CCC2[C@](C)(CO)C(O)CC[C@]2(C)C1C/C=C1/C(=O)OCC1O (some centres not stated)', 'Potency', 'inactive'),
  ('CO[C@H]1/C=C/O[C@@]2(C)Oc3c(C)c(O)c4c(O)c(c(/C=N\N5CCN(C6CCCC6)CC5)c(O)c4c3C2=O)NC(=O)/C(C)=C\C=C\[C@H](C)[C@H](O)[C@@H](C)[C@@H](O)[C@@H](C)[C@H](OC(C)=O)[C@@H]1C', 'Potency', '10 µM (active)'),
  ('C[C@@]12C(=O)OC(=O)[C@]1(C)[C@H]1CC[C@@H]2O1', 'Potency', 'inactive'),
  ('CC(C)C[C@H]1C(=O)N2CCCC2[C@]2(O)O[C@](NC(=O)[C@@H]3C=C4c5cccc6[nH]c(Br)c(c56)C[C@H]4N(C)C3)(C(C)C)C(=O)N12 (some centres not stated)', 'Potency', '8.91 µM (active)'),
  ('CN1C[C@H](C(=O)N[C@]2(C)O[C@@]3(O)C4CCCN4C(=O)[C@H](Cc4ccccc4)N3C2=O)C[C@@H]2c3cccc4[nH]cc(c34)C[C@H]21 (some centres not stated)', 'Potency', '10 µM (active)'),
  ('CN=C(N)NCCCC(N)C(=O)O (configuration not stated)', 'Potency', 'inactive'),
  ('CC(/C=C1\SC(=S)N(CC(=O)O)C1=O)=C\c1ccccc1', 'Potency', 'inactive');

---

In this section we review reported activity change, negative = inhibition values for a set of compounds.
Assay: NFAT Signaling Pathway (AID 444);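 note: carbachol stimulus at about its EC50 of 1 µM final; % is set by controls: 0 for no effect and ±100 for the full control effect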
Settings: Jurkat NFAT-bla M1, carbachol, beta-lactamase ratio, 5 h; at 7.69 µM (top of the series) unless noted
Records with an inconclusive call do not appear. Activity calls are given as the source filed them. Calls come from the whole dose curve; as a rule, active = well fitted curve in either direction with a large enough effect (not every such curve was filed as active); inconclusive = small, poorly fitted or top-dose-only effect, or another doubt; inactive = flat fitted curve, though single readings scatter.
Measurement kind: activity change, negative = inhibition

INSERT INTO measurements (test_smiles, experimental_value) VALUES
  ('CS(=O)(=O)N1CCC2(CC1)CN(c1cccc(-c3ccccc3)c1)C2', '9.12% (inactive)'),
  ('N#CCCn1c(=O)c(-c2cc(F)cc(F)c2)nc2cnc(OCc3ccccc3)nc21', '-0.0706% (inactive)'),
  ('NCCCCNS(=O)(=O)c1cccc2c(Cl)cccc12', '-12.9% [at 38 µM] (inactive)'),
  ('CNc1ccnc(-c2ccccc2C(F)(F)F)n1', '5.43% (inactive)'),
  ('c1nc(NC2CCNCC2)c2cc(-c3ccoc3)ccc2n1', '12.3% (inactive)'),
  ('COC(=O)N1CCC2(CC1)CN(C(c1ccccc1)c1ccccc1)C2', '-16.9% (inactive)'),
  ('COCC(=O)N1CCC2(CCCN(Cc3cc(C(F)(F)F)cc(C(F)(F)F)c3)C2)CC1', '-0.717% (inactive)'),
  ('COc1ccc(C(=O)N2CCC[C@@]3(CCN(C(=O)Nc4ccccc4)C3)C2)cc1', '12.1% (inactive)'),
  ('COCCn1c(=O)c(C)nc2cnc(Oc3ccc(OC)cc3)nc21', '7.53% (inactive)'),
  ('O=C(c1cnccn1)N1CCC[C@@]2(CCN(Cc3cc(C(F)(F)F)cc(C(F)(F)F)c3)C2)C1', '16.8% (inactive)'),
  ('Cc1noc(C)c1C(=O)N1CCC2(CC1)CN(C(=O)Nc1cccc(F)c1)C2', '19.9% (inactive)'),
  ('O=c1c(-c2ccc(F)cc2)nc2cnc(Oc3ccccc3)nc2n1C1CC1', '5.2% (inactive)'),
  ('CC(=O)NCCNc1nc(-c2ccccc2C(F)(F)F)nc2ccccc12', '4.42% (inactive)'),
  ('Cc1noc(C)c1C(=O)N1CCC2(CCN(C(=O)Nc3ccccc3)CC2)CC1', '-2.66% (inactive)'),
  ('COC(=O)N1CCC[C@@]2(CCN(C(=O)Nc3cccc(C#N)c3)C2)C1', '19.3% (inactive)'),
  ('CN(C)c1ncc2nc(-c3cccs3)c(=O)n(CCC#N)c2n1', '-7.03% (inactive)'),
  ('c1csc(CNc2ccnc(-c3ccoc3)n2)c1', '-0.203% (inactive)'),
  ('Cn1cc(-c2nc3cncnc3n(Cc3ccc(F)cc3)c2=O)c2ccccc21', '-18.4% (inactive)'),
  ('O=C(Nc1cccc(F)c1)N1CC[C@@]2(CCCNC2)C1', '-0.699% (inactive)'),
  ('Cc1noc(C)c1-c1nc(N2CCNCC2)c2ccccc2n1', '-3.25% (inactive)'),
  ('CC(=O)N1CCC2(CCN(Cc3ccncc3)CC2)CC1', '-0.25% (inactive)'),
  ('COCC(=O)N1CCC[C@@]2(CCN(Cc3ccccc3OC)C2)C1', '7.38% (inactive)'),
  ('COc1cccc(Nc2ncc3nc(C)c(=O)n(C)c3n2)c1', '-5.64% (inactive)'),
  ('COc1ccc2[nH]cc(CCNc3ncncc3-c3c(C)noc3C)c2c1', '-0.0502% (inactive)'),
  ('COc1ccc(CNc2cc(-c3ccccc3Cl)ncn2)c(OC)c1', '-0.814% (inactive)'),
  ('O=C(Nc1ccccc1)N1CC[C@@]2(CCCN(C(=O)c3cnccn3)C2)C1', '7.42% (inactive)'),
  ('Cc1noc(C)c1C(=O)N1CCC[C@@]2(CCN(C(=O)NC(C)C)C2)C1', '7.59% (inactive)'),
  ('N#Cc1cccc(NC(=O)N2CC[C@@]3(CCCNC3)C2)c1', '9.18% (inactive)'),
  ('CS(=O)(=O)N1CCC2(CCN(C(c3ccccc3)c3ccccc3)CC2)CC1', '-8.24% (inactive)'),
  ('CCNc1ncc2nc(C)c(=O)n(C3CC3)c2n1', '-13.9% (inactive)'),
  ('Cc1nc2cnc(N(C)C)nc2n(Cc2ccc(F)cc2)c1=O', '1.01% (inactive)'),
  ('CC(C)CN1CCC2(CC1)CCN(C(=O)c1csnn1)CC2', '-21.7% (inactive)');
